# assay.details: BBB permeability, cassette intravenous dosing
# Assay type: in vivo, male CD-1 mice
# settings: male, CD-1, mouse, plasma, cassette IV 5 mg/kg, 10% DMSO in PBS, read-out: Plasma Conc
Hi there, I'd appreciate the recorded concentration at 5 min for every entry that follows.
Numeric answer only, unit ng/mL assumed.

**Q:** Tell me concentration at 5 min reported for `CCCCCCNC(=O)c1ncn2c(=O)n(C)nnc12`
**A:** 2920

**Q:** Complete the entry with concentration at 5 min for `Cn1nnc2c(C(=O)NC3CCCCC3)ncn2c1=O`
**A:** 3120

**Q:** Please look at this molecule and report its concentration at 5 min: Cn1nnc2c(C(N)=O)ncn2c1=O [TMZ, temozolomide]
**A:** 5540
